- system.tested: sGC α1/β1 heterodimer (Homo sapiens (Human), UniProt Q02108+Q02153)
- Sequence (Q02108 whole entry): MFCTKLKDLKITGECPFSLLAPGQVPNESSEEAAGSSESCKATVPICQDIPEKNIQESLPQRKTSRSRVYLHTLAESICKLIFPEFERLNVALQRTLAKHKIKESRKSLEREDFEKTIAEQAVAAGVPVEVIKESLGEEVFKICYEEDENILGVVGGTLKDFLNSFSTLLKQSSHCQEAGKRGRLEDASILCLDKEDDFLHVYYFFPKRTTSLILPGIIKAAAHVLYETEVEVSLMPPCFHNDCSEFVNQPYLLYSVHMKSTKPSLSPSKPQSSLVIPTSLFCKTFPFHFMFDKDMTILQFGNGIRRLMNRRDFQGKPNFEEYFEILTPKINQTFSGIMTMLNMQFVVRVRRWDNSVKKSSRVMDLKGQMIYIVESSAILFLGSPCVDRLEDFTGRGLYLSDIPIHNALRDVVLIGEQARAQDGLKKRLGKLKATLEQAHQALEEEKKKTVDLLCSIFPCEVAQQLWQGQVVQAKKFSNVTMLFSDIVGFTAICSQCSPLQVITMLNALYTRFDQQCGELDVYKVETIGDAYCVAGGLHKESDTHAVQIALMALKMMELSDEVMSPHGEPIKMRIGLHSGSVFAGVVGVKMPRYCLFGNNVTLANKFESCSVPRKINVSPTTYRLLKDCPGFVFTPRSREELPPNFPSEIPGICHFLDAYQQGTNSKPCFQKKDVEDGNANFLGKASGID
- Sequence (Q02153 whole entry): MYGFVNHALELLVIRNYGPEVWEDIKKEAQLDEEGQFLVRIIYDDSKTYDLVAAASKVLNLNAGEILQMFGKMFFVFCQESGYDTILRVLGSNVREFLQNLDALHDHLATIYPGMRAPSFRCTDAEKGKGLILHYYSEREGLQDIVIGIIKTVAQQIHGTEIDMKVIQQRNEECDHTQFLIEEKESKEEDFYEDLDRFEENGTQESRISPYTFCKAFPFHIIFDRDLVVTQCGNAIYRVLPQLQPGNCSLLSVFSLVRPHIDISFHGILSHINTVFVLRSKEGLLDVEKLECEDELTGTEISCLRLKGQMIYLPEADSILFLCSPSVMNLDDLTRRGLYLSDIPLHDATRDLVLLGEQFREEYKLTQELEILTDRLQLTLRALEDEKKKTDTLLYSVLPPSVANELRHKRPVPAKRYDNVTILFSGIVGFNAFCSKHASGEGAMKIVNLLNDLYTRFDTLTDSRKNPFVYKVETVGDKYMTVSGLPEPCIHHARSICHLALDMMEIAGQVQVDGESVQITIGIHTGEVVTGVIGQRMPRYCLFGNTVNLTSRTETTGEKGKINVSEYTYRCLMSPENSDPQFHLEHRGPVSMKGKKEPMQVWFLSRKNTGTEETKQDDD
- assay.method.text: Cell-based sGC functional assay (cyclic GMP assay for sGC activator: CASA assay)
- assay.conditions: CHO-K1, activity expressed as percentage of compound A (standard); CHO-K1/sGC cells; read-out: % Activation
parameter: Emax

Known results for molecules:
Look up Emax with sGC α1/β1 heterodimer (Homo sapiens (Human), UniProt Q02108+Q02153) for this molecule: C[C@@]1(c2ccc(CCC(=O)O)cc2)C(=O)Nc2nc(-c3nn(CC4CCCCC4)c4cc(Cl)ccc34)nc(N)c21 [Example 44B]
127%

Test system sGC α1/β1 heterodimer (Homo sapiens (Human), UniProt Q02108+Q02153); read-out Emax; what value for CC(C)(Cc1coc(C2(C)C(=O)Nc3nc(-c4nn(Cc5cccc(F)c5F)c5cc(Cl)ccc45)nc(N)c32)n1)C(=O)O (centres unmarked) [Example 180A] ?
121%

---
Fill in the recorded Emax for this molecule, with sGC α1/β1 heterodimer (Homo sapiens (Human), UniProt Q02108+Q02153) as test system: CC1(c2nc(CC(=O)O)co2)C(=O)Nc2nc(-c3nn(Cc4ccccc4F)c4cc(Cl)ccc34)nc(N)c21 (centres unmarked) [Example 51B]
116%

Missing value: Emax, sGC α1/β1 heterodimer (Homo sapiens (Human), UniProt Q02108+Q02153), entry Cc1cccc(Cn2nc(-c3nc(N)c4c(n3)NC(=O)C4(C)c3nc(CC(C)(C)C(=O)O)co3)c3ccc(Cl)cc32)c1 (centres unmarked) [Example 186A] . Fill in?
83.3%

Please tell me: Emax of CC(C)(Cc1ccc(C2(C)C(=O)Nc3nc(-c4nn(CCC(F)(F)C(F)(F)F)c5ncccc45)nc(N)c32)nc1)C(=O)O (centres unmarked) [Example 8B] , system sGC α1/β1 heterodimer (Homo sapiens (Human), UniProt Q02108+Q02153)?
129%

State its Emax on sGC α1/β1 heterodimer (Homo sapiens (Human), UniProt Q02108+Q02153): C[C@@]1(c2ccc(CCc3nn[nH]n3)cc2)C(=O)Nc2nc(-c3nn(Cc4ccccc4F)c4ncccc34)nc(N)c21 [Example 240B]
104%

What value of Emax on sGC α1/β1 heterodimer (Homo sapiens (Human), UniProt Q02108+Q02153) does CC(C)(C)CCn1nc(-c2nc(N)c3c(n2)NC(=O)C3(C)c2nc(CC(C)(C)C(=O)O)co2)c2ccc(Cl)cc21 (centres unmarked) [Example 208A] have?
101%

Form field - read-out: Emax; system: sGC α1/β1 heterodimer (Homo sapiens (Human), UniProt Q02108+Q02153); submitted item: CC(C)(Cc1csc([C@]2(C)C(=O)Nc3nc(-c4nn(CCC(F)(F)C(F)(F)F)c5cc(Cl)ccc45)nc(N)c32)n1)C(=O)O [Example 92B]
111%

Notebook: pull reported Emax for sGC α1/β1 heterodimer (Homo sapiens (Human), UniProt Q02108+Q02153), entry C[C@@]1(c2ccc(CCC(=O)NCC(=O)O)cc2)C(=O)Nc2nc(-c3nn(Cc4ccccc4F)c4ncccc34)nc(N)c21 [Example 100B]
109%

###

- system.tested: sGC α1/β1 heterodimer (Homo sapiens (Human), UniProt Q02108+Q02153)
- assay.method.text: Cell-based sGC functional assay (cyclic GMP assay for sGC activator: CASA assay)
- assay.conditions: inflection point, 4P fit; CHO-K1/sGC cells; read-out: IP
parameter: EC50 (nM)
The reply should be a number in nM, with the unit left off.

Please give the measured EC50 for this molecule: Cc1ccc2c(-c3nc(N)c4c(n3)NC(=O)[C@@]4(C)c3ccc(CCC(=O)O)cc3)nn(CCCC(F)(F)F)c2n1 [Example 20B]
2210

Given CC1(c2nc3cc(C(=O)O)ccc3o2)C(=O)Nc2nc(-c3nn(Cc4ccccc4F)c4cc(Cl)ccc34)nc(N)c21 (centres unmarked) [Example 168B] , state its recorded EC50.
207

New cases:
What does the record list as EC50 for CC1(c2cccc(C(=O)O)c2)C(=O)Nc2nc(-c3nn(Cc4ccccc4F)c4cc(Cl)ccc34)nc(N)c21 (centres unmarked) [Example 169B] ?
159

Consider the molecule shown here: Cc1ccc2c(-c3nc(N)c4c(n3)NC(=O)[C@@]4(C)c3ccc(CCC(=O)O)cc3)nn(Cc3ccccc3F)c2c1 [Example 59B] What is its recorded EC50?
858
